measurement_context: rat; liver microsomes; pH 7.4; 15.0 min; 1.0 µM

# compound, relation, half-life / min
data = [
    ("Cc1c(Cl)cccc1NC(=O)CNS(=O)(=O)c1cccs1", "=", 5.47),
    ("Cc1cnc(-c2ccccc2C2COC2)nc1NCC1CCN(c2cccnc2)CC1", ">", 30),
    ("Fc1ccc(Cc2nc3nccc(-c4cccs4)n3n2)cc1", "=", 2.95),
    ("Cc1cc(C)nc(NC(=S)N2CCN(c3ccc(C(F)(F)F)cc3[N+](=O)[O-])CC2)c1", ">", 30),
    ("Fc1cccc(CN2CCNc3cc(Nc4ccccc4)ncc3C2)c1", "=", 1.14),
    ("Nc1ncnc2c1c(-c1cnc3[nH]ccc3c1)nn2C1CCCC1", "=", 3.09),
    ("COc1ccc(Cn2c(C(=O)O)c(CNCc3cccc(OC)c3)c3ccc(C)cc32)cc1", "=", 11.6),
    ("Cc1ccnc(NC(=S)N2CCN(c3ccccc3C(F)(F)F)CC2)c1", "=", 2),
    ("C[C@@H]1CN(CC(=O)N2CC(C)(C)c3ncc(Cc4ccc(F)cc4)cc32)[C@@H](CN2CCOC[C@H]2C)CN1", "=", 7.57),
    ("COc1cc(NS(=O)(=O)c2ccc(C)cc2)c(C(=O)Nc2nc(-c3ccccc3)cs2)cc1OC", "=", 9),
    ("CCOC(=O)c1cc(-c2ccco2)nc2c1c(C)nn2CCC#N", "=", 3.57),
    ("Clc1ccc(-c2nnc(C3CCCCC3)o2)cc1", "=", 2.9),
    ("Oc1ccc(-c2nc(C3CC3)nc3c2CCN(Cc2ccc(F)cc2)CC3)cc1", "=", 2.02),
    ("COc1cc(C(=O)N2CCN(c3cc(Cl)ccc3Cl)CC2)cc(OC)c1OC", "=", 4.31),
    ("CCN(CC)S(=O)(=O)c1ccc2oc(C(=O)Nc3ccc(Br)cc3F)c(C)c2c1", "=", 7.91),
    ("O=C(CSc1ccccc1)Nc1nnc(COc2ccc(Cl)cc2)s1", "=", 7),
    ("Nc1nc2c(s1)C(c1ccc(F)cc1F)CC(=O)N2 (stereo not drawn)", ">", 30),
    ("CNC(=O)c1cc(Oc2ccc(NC(=O)Nc3cc(C(C)(C)C)nn3-c3ccc4ncccc4c3)c(F)c2)ccn1", "=", 6.64),
    ("COc1ccc(CN(C2CCCCC2C)S(=O)(=O)c2ccc(S(=O)(=O)N(C)C)cc2)cc1OC (stereo not drawn)", "=", 1.6),
    ("O=C(Nc1ncc(Cc2ccc(C(F)(F)F)cc2)s1)c1ccc(-c2ccccc2[N+](=O)[O-])o1", ">", 30),
    ("c1ccc(Nc2cc3c(cn2)CN(Cc2cccs2)CCN3)cc1", "=", 1.77),
    ("CCS(=O)(=O)c1cccc(C(=O)Nc2ccc(-c3nc4ccccc4s3)c(O)c2)c1", ">", 30),
    ("COc1cccc2nc(-c3cccs3)nc(NN3C(=O)C=C(C)C3=O)c12", "=", 4.26),
]
